Value source: patent US10202364B2

Test: Solubility in water at ambient temperature
Assay type: physicochemical
Conditions: water, ambient temperature, shaken 48 hours; free base-equivalent value, HPLC/UV
Hi! Just check whether Conc. (μg/mL) at 48 hours is below 200 µg/mL. Below gives Criterion met, equal or above gives Criterion not met.

molecule	class.name
C=CC(=O)Nc1cc(C)ccc1Nc1nc(Nc2cc(OC)ncc2C)ncc1C(F)(F)F.Cc1ccc(S(=O)(=O)O)cc1 [Compound 8]	Criterion met
C=CC(=O)Nc1cc(C)ccc1Nc1nc(Nc2cc(OC)ncc2C)ncc1C(F)(F)F.O=S(=O)(O)c1ccccc1 [Compound 9]	Criterion met
Br.C=CC(=O)Nc1cc(C)ccc1Nc1nc(Nc2cc(OC)ncc2C)ncc1C(F)(F)F [Compound 5]	Criterion not met
C=CC(=O)Nc1cc(C)ccc1Nc1nc(Nc2cc(OC)ncc2C)ncc1C(F)(F)F.O=P(O)(O)O [Compound 2]	Criterion met
C=CC(=O)Nc1cc(C)ccc1Nc1nc(Nc2cc(OC)ncc2C)ncc1C(F)(F)F [Compound 6]	Criterion not met
